Reference source: patent US8232271B2

quantity-measured: melting point

COc1cc(CN2CCNS2(=O)=O)c(-c2ccc[nH]c2=O)cc1C(C)(C)C | 230 to 231 °C
COc1cc(CN2C(=O)CC[C@@H]2CO)c(-c2ccc[nH]c2=O)cc1C(C)(C)C | 150 to 152 °C
COc1cc(C(=O)N2CCC(CO)C2)c(-c2ccc[nH]c2=O)cc1C(C)(C)C (stereo not shown) | 201 to 203 °C
COc1cc(CN2Cc3ccc(NS(C)(=O)=O)cc3C2=O)c(-c2ccc[nH]c2=O)cc1C(C)(C)C | 173 to 175 °C

---

tested-system: HCV polymerase (NS5B570n-Con1) (Hepatitis C virus genotype 1b, UniProt Q9WMX2)
Construct: contains a 21 amino acid deletion at the C-terminus relative to the full-length HCV polymerase; 6-histidine (N)
assay-procedure: HCV NS5B RNA polymerase activity assay
pIC50: −log10 of the molar value.
Record Satisfied whenever pIC50 is at 7 or higher; record Not satisfied when lower.

COc1cc(CCO)c(-c2ccc[nH]c2=O)cc1C(C)(C)C | Not satisfied
COc1cc(CC(N)=O)c(-c2ccc[nH]c2=O)cc1C(C)(C)C | Not satisfied
COc1cc(CNS(N)(=O)=O)c(-c2ccc[nH]c2=O)cc1C(C)(C)C | Satisfied
COc1cc(CCC(=O)O)c(-c2ccc[nH]c2=O)cc1C(C)(C)C | Not satisfied
COc1cc(CN2CCN(C)S2(=O)=O)c(-c2ccc[nH]c2=O)cc1C(C)(C)C | Satisfied
COc1cc(CN(c2ccccc2)S(C)(=O)=O)c(-c2ccc[nH]c2=O)cc1C(C)(C)C | Satisfied
COc1cc(CNS(=O)(=O)c2ccccc2Cl)c(-c2ccc[nH]c2=O)cc1C(C)(C)C | Not satisfied
CNC(=O)Cc1cc(OC)c(C(C)(C)C)cc1-c1ccc[nH]c1=O | Not satisfied
COc1cc(C(=O)N2CCS(=O)(=O)CC2)c(-c2ccc[nH]c2=O)cc1C(C)(C)C | Not satisfied
COc1cc(C(=O)N2CCOCC2)c(-c2ccc[nH]c2=O)cc1C(C)(C)C | Not satisfied

---

tested-system: HCV polymerase (NS5B570n-Con1) (Hepatitis C virus genotype 1b, UniProt Q9WMX2)
Construct: contains a 21 amino acid deletion at the C-terminus relative to the full-length HCV polymerase; 6-histidine (N); made in house; host or cells: E. coli BL21(DE) pLysS, plasmid pET17b
assay-procedure: HCV NS5B RNA polymerase activity assay
Format: biochemical, HCV Con1 strain
quantity-measured: IC50 (nM)

COc1cc(CNC(=O)c2cccc(NS(C)(=O)=O)c2)c(-c2ccc[nH]c2=O)cc1C(C)(C)C | 12
COc1cc(C(=O)N2CCOC(CO)C2)c(-c2ccc[nH]c2=O)cc1C(C)(C)C (stereo not shown) | 1410
COc1cc(CNC(=O)c2ccc(N(S(C)(=O)=O)S(C)(=O)=O)cc2)c(-c2ccc[nH]c2=O)cc1C(C)(C)C | 774
COc1cc(CN(C)C(=O)c2cccc(NS(C)(=O)=O)c2)c(-c2ccc[nH]c2=O)cc1C(C)(C)C | 13
COc1cc(CN(C)C(=O)c2ccccc2)c(-c2ccc[nH]c2=O)cc1C(C)(C)C | 25
CCN(Cc1cc(OC)c(C(C)(C)C)cc1-c1ccc[nH]c1=O)S(C)(=O)=O | 44
COc1cc(CNS(=O)(=O)C(C)C)c(-c2ccc[nH]c2=O)cc1C(C)(C)C | 183
